Origin of the recorded values: patent US20240368263A1

testedOn: T1, Fas/TNFSF6 (R&D Systems, cat. no. 126-FL/CF) (UniProt P48023 134-281)
T1 sequence (looked up): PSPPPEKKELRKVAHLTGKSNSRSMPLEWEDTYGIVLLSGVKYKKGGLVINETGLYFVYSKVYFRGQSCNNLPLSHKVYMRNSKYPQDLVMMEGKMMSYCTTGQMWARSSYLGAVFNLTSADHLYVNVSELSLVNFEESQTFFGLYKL
measurementDescription: ELISA, antigen coated at 1 µg/ml, Fab titrated

# binder, binding result
data = [
    ("Clone XL3-6 Fab (Fab, V domains shown, Fab) VH: QVQLVQSGAEVKKPGASVKVSCKASGFDIQDTYMHWVRQAPGQGLEWMGRIDPASGHTKYDPKFQGRATITTDTSASTAYLQLSSLRSEDTAVYYCARSGGLPDFWGQGTTVTVSS VL: EIVLTQSPGTLSLSPGERATLSCRASSSVSYMYWYQQKPGQAPRLLIYATSNLASGIPDRFSGSGSGTDFTLTISRLEPEDFAVYYCSQWSGNPRTFGGGTKLEIK", "no binding"),
    ("Clone 17L-1 Fab (Fab, V domains shown, Fab) VH: QVQLVQSGAEVKKPGASVKVSCKASGFDIQDTYMHWVRQAPGQGLEWMGRIDPASGHLKYDPKFQRRVTMTRDTSTSTVYMELSSLRSEDTAVYYCARSGGLPDMWGQGTTVTVSS VL: EIVLTQSPGTLSLSPGERATLSCRASSSVSYMYWYQQKPGQAPRLLIYATSNLASGIPDRFSGSGSGTDFTLTISRLEPEDFAVYYCQQWQGNPRTFGGGTKLEIK", "no binding"),
    ("Clone 14 Fab (Fab, V domains shown, Fab; also called variant 14) VH: QVQLVQSGAEVKKPGASVKVSCKASGFDIQDTYMHWVRQAPGQGLEWMGRIDPASGHIKYDPKFQKRVTMTRDTSTSTVYMELSSLRSEDTAVYYCARSGGLPDMWGQGTTVTVSS VL: EIVLTQSPGTLSLSPGERATLSCRASSSVSYMYWYQQKPGQAPRLLIYATSNLASGIPDRFSGSGSGTDFTLTISRLEPEDFAVYYCQQWQGNPRTFGGGTKLEIK", "no binding"),
]
